Reference source: patent US8952024B2

# Test system: ragweed (common ragweed, Ambrosia elatior)
# method: Test B pre-/postemergence plant response
# Assay type: in vivo
# test-settings: Preemergence, 125 g ai/ha; scale 0 to 100, 0 no effect, 100 complete control
Field: Plant response rating, Ragweed. Provide a value for each of the molecules that follow.
Keep it simple and answer with nothing but the number.

Q: Return reported Plant response rating, Ragweed; argument: `CCCCn1c(C2CC2)ncc(C(=O)C2=C(O)CCCC2=O)c1=O`
Result: 100

Q: Return reported Plant response rating, Ragweed; argument: `CCCc1ncc(C(=O)C2=C(O)CCCC2=O)c(=O)n1-c1ccccc1`
Result: 90

Q: Return reported Plant response rating, Ragweed; argument: `CCc1cccc(-n2c(-c3ccccc3)ncc(C(=O)C3=C(O)CCCC3=O)c2=O)c1`
Result: 80

Q: Return reported Plant response rating, Ragweed; argument: `O=C1CCCC(O)=C1C(=O)c1cnc(-c2cccc(Br)c2)n(-c2ccccc2)c1=O`
Result: 65

Q: Return reported Plant response rating, Ragweed; argument: `O=C1CCCC(O)=C1C(=O)c1cnc(-c2cccs2)n(-c2ccccc2)c1=O`
Result: 45
